Origin of measurements: ChEMBL document CHEMBL1201862

# Test system: M14
# test-name: NCI tumour cell line growth inhibition, 48 h
Active and inactive are the calls of the source. Cut-off read from the data, not from the text of the source: active = GI50 up to about 1.1 µM and inactive = higher.
Lab note: assign the record to one of active, inactive

Ask: Would you mind telling me which call this test gave COC(=O)C1(SC)C2CCC3C2CCC31 (configuration not stated) ?
Reply: inactive

Ask: Next record, please: CN(C)CCNCCCNc1c2ccccc2nc2cccc([N+](=O)[O-])c12
Reply: active

Ask: Next record, please: CN(C)/N=C(/CC(O)(C(F)(F)F)C(F)(F)F)c1ccc([N+](=O)[O-])cc1
Reply: inactive

Ask: Next record, please: Cc1cc(O)nc(NN2C(Cl)C(=O)C2c2ccco2)n1 (configuration not stated)
Reply: inactive

Ask: Next record, please: O=C1C/C(=C/c2ccc(/C=C3/CC(=O)N(c4cccc(Br)c4)C3=O)cc2)C(=O)N1c1cccc(Br)c1
Reply: inactive

Ask: Next record, please: CC1=Nc2nc(Cl)cn2C(=O)C1(Cl)Cl
Reply: inactive

Ask: Next record, please: COC(=O)N/N=C(/CCN1CCCC1)CC(c1ccccc1)c1c(O)c2ccccc2oc1=O (configuration not stated)
Reply: inactive

Ask: Next record, please: Cc1ccccc1[P+](C)(c1ccccc1C)c1ccccc1C
Reply: inactive

Ask: Next record, please: N#Cc1c(O)n(-c2ccccc2)c(=O)c2c(N)n[nH]c12
Reply: inactive

Ask: Next record, please: COC1=CC(C2c3cc4c(cc3[C@@H](Nc3ccc([N+](=O)[O-])cc3)C3COC(=O)[C@H]23)OCO4)=CC(=O)C1=O (some centres not stated)
Reply: inactive

Ask: Next record, please: CCOC(=O)c1cc(C2CCN(CC(C)CC)C2=S)c(C(=O)/C=C(/C)N)[nH]1 (configuration not stated)
Reply: inactive

Ask: Next record, please: C/C=C1\C(=O)O[C@H]2C/C(C)=C/CC/C(C)=C/CC[C@@]3(C)O[C@@H]3C[C@@H]12
Reply: inactive

Ask: Next record, please: COc1ccc(C(OCC2OC(n3cnc4c(=O)n(Cc5ccccc5[N+](=O)[O-])nnc43)C(O)C2O)(c2ccccc2)c2ccc(OC)cc2)cc1 (configuration not stated)
Reply: inactive

Ask: Next record, please: O=c1[nH]c(=S)[nH]cc1CN1CCOCC1
Reply: inactive

Ask: Next record, please: O=c1/c(=C/c2ccc(Cl)cc2Cl)sc2nc3ccccc3n12
Reply: inactive

Ask: Next record, please: CC(=O)NCc1c(C(N)=O)ncn1Cc1ccccc1
Reply: inactive

Ask: Next record, please: CCS/C(=N\c1ccccc1)SC
Reply: inactive

Ask: Next record, please: CC(C)/C=C1\CCC(CN2CCCC2)C1=O (configuration not stated)
Reply: inactive

Ask: Next record, please: C/C=C/C=C/[C@H]1Cc2cc(O)cc(O)c2O1
Reply: inactive

Ask: Next record, please: Cn1c(=O)n(CC(Br)CBr)c(=O)n(CC(Br)CBr)c1=O (configuration not stated)
Reply: inactive

Ask: Next record, please: COc1c(-c2cccs2)oc2c(CC(=O)O)cccc2c1=O
Reply: inactive

Ask: Next record, please: CC12CCC(C(=O)OC1=O)C(C)(C)O2 (configuration not stated)
Reply: inactive

* * *

For each record, write down the corresponding GI50.
# System: M14
# test-name: NCI tumour cell line growth inhibition, 48 h
Activity calls are given as the source filed them. No stated cut-off is given here; in the data, active = GI50 up to about 1.1 µM and inactive = higher.

Ask: I'd like to know its GI50. The molecule in question is COC(=O)C1=C(C)N2CCSC2(C)C(C(=O)OC)C1c1cccc(Cl)c1 (stereo not given)
Reply: 30.1 µM (inactive)

Ask: Next record, please: O=C1C2C(C(=O)N1Cc1ccccc1)N(Cc1ccccc1)C(=O)N2Cc1ccccc1 (stereo not given)
Reply: > 100 µM (inactive)

Ask: Next record, please: S=C1NCN2CCN(CC2)CNC(=S)C(=S)NCN2CCN(CC2)CNC1=S
Reply: 30.1 µM (inactive)

Ask: Next record, please: COc1cnc2cc(C(=O)O)c3c([N+](=O)[O-])cccc3c2c1
Reply: > 100 µM (inactive)

Ask: Next record, please: O=C(c1ccco1)N(C(=O)N1CCN(c2ccccc2)CC1)S(=O)(=O)c1ccccc1
Reply: 23 µM (inactive)

* * *

# System: K562
# test-name: NCI tumour cell line growth inhibition, 48 h
Active and inactive are the calls of the source. Cut-off read from the data, not from the text of the source: active = GI50 up to about 1.1 µM and inactive = higher.
Lab note: assign the record to one of 1 (active), -1 (inactive)

Ask: Would you mind telling me which call this test gave [O-][S+]1Cc2ccccc2CS1 (stereo not given) ?
Reply: -1

Ask: Next record, please: COc1ccc2cc1Oc1ccc(cc1)C(Sc1ccccc1)CCOC(=O)CC2 (stereo not given)
Reply: -1

Ask: Next record, please: CC1=Nc2nc(Cl)cn2C(=O)C1(Cl)Cl
Reply: -1

Ask: Next record, please: COc1cc(C2c3cc4c(cc3[C@H](NS(C)(=O)=O)C3COC(=O)[C@H]23)OCO4)cc(OC)c1OC (stereo not given in full)
Reply: 1

Ask: Next record, please: COc1ccc(/C=C2\CCC(CCN(C)C)(C3=CCCC3)C2=O)cc1Br (stereo not given)
Reply: -1

Ask: Next record, please: O=c1cc2n(c(=O)[nH]1)C1OC(C(O)C1O)[C@H]2CCO (stereo not given in full)
Reply: -1

Ask: Next record, please: COP(=O)(OC)C(Cc1c[nH]c2ccccc12)NC(=O)OCc1ccccc1 (stereo not given)
Reply: -1

Ask: Next record, please: Nc1nc(Cl)cc(OCC2(CO)CC=CC2)n1
Reply: -1

Ask: Next record, please: CCOC(=O)C(NC(=O)CC(C)C)(Nc1ccc(C(F)(F)F)cc1)C(F)(F)F (stereo not given)
Reply: -1

Ask: Next record, please: CC1OC(c2ccc3c(c2O)C(=O)C2=C(C3=O)C3(O)C(=O)CC(C)(O)CC3(O)C=C2)CC(O)C1O (stereo not given)
Reply: -1

Ask: Next record, please: Cc1cc2c(cc1-c1cc3c(cc1C)C(C(C)C)=C(O)C(=O)/C3=C\NCC1CCCN3CCCCC13)/C(=C/NCC1CCCN3CCCCC13)C(=O)C(O)=C2C(C)C (stereo not given)
Reply: -1

Ask: Next record, please: CC(C)CCC[C@@H](C)C1CCC2[C@@H]3CCC4C[C@@H](NS(C)(=O)=O)CC[C@]4(C)C3CC[C@@]21C (stereo not given in full)
Reply: -1

Ask: Next record, please: CCc1cccc(C)c1NC(=O)CCc1nnc(SC)o1
Reply: -1

Ask: Next record, please: CN(C)CCCNc1ccc2nnn3c4ccc(OC(=O)c5ccc([N+](=O)[O-])cc5)cc4c(=O)c1c23
Reply: -1

Ask: Next record, please: O=C(C#Cc1cnc(O)nc1O)c1ccccc1
Reply: -1

Ask: Next record, please: COc1cnc2oc3ccc(O)cc3c2c1-c1ccccc1
Reply: -1

Ask: Next record, please: C=C(C)[C@H]1CC23C(=O)C(C(=O)C(C)C)=C(O)[C@](C)(C[C@H]2C1(C)C)C3=O [LALIBINONE B]
Reply: -1

Ask: Next record, please: CCOC(=O)C(NC(=O)c1ccccc1)(N1CCOCC1)C(F)(F)F (stereo not given)
Reply: -1

Ask: Next record, please: Cc1cc(O)c2c(c1)CC(O)C1=C2C(=O)c2c(O)ccc(OC3CC(O)C(OC4CC(OC5CCC(O)C(C)O5)C(O)C(C)O4)C(C)O3)c2C1=O (stereo not given)
Reply: -1

Ask: Next record, please: CC(=O)Oc1ccc(O)c2c1CCCC2
Reply: -1

* * *

# Test system: A498
# test-name: NCI tumour cell line growth inhibition, 48 h
Activity calls are given as the source filed them. Rule as the data show it: active = GI50 up to about 1.1 µM and inactive = higher.
readout: GI50

Ask: I'd like to know its GI50. The compound in question is N#CC(/C(=N/NC(N)=S)C(=O)Nc1cccc(Cl)c1)c1ccccc1 (stereo not given)
Reply: > 100 µM (inactive)

Ask: Next record, please: COc1ccc([C@H]2[C@H](C)C3=Nc4ccccc4CN32)cc1
Reply: > 100 µM (inactive)

Ask: Next record, please: CC1=NC(=Cc2ccc(O)cc2)C(=O)N1n1c(-c2ccccc2)nc2ccccc2c1=O
Reply: > 100 µM (inactive)

Ask: Next record, please: COC(=O)[C@@]1(C)C(=O)CC[C@@H]1C=O
Reply: > 100 µM (inactive)

Ask: Next record, please: C=C1C(=O)OC2CC1C(OC(=O)/C=C/c1ccccc1)C/C(C)=C/CC/C(C)=C/CCC2(C)O (stereo not given)
Reply: 1.91 µM (inactive)

Ask: Next record, please: COc1cccc(N2C(=O)C3CC(CC(C)(C)C)c4c([nH]c5ccccc45)C3C2=O)c1 (stereo not given)
Reply: > 10 µM (inactive)

Ask: Next record, please: COC(=O)C[S+]([O-])c1ccccc1 (stereo not given)
Reply: 49.8 µM (inactive)

Ask: Next record, please: CCOC(=O)NC(=O)c1cn(CCCOC(=O)CCCCCCCCCCC(=O)OCCCn2cc(C(=O)NC(=O)OCC)c(=O)n(C)c2=O)c(=O)n(C)c1=O
Reply: > 100 µM (inactive)

Ask: Next record, please: O=C(/C=C/c1ccccc1)c1ccc(NCc2nc3ccccc3[nH]2)cc1
Reply: 5.24 µM (inactive)

Ask: Next record, please: CC(C)C1C(=O)NC(CO)Cc2c[nH]c3c(C(c4c[nH]c5ccccc45)C(O)CO)ccc(c23)N1C (stereo not given)
Reply: 14.5 µM (inactive)

Ask: Next record, please: COc1cc(Cc2cnc(N)nc2N)cc(OC)c1OCCCNc1ccc([N+](=O)[O-])cc1
Reply: 14.9 µM (inactive)

Ask: Next record, please: Cc1cc(C)c(C2=NOC(c3ccccc3)(c3cc(=O)n(-c4ccccc4)s3)O2)c(C)c1 (stereo not given)
Reply: > 100 µM (inactive)

Ask: Next record, please: CCC(N)(C(=O)O)C(C)C (stereo not given)
Reply: > 100 µM (inactive)

Ask: Next record, please: CC(=O)NCc1c(C(N)=O)ncn1Cc1ccccc1
Reply: > 100 µM (inactive)

Ask: Next record, please: O=C(OCc1nc2ccc(Br)cc2c(=O)n1-c1ccccc1)c1ccccc1O
Reply: 58.3 µM (inactive)

Ask: Next record, please: CCN(CC)C(=O)Cn1c2c(c3ccccc31)CCCC2
Reply: > 100 µM (inactive)

Ask: Next record, please: N#C[BH2-][n+]1cn(C2CC(OP(=O)(O)OCC3OC(n4cnc5c(N)ncnc54)CC3O)C(CO)O2)c2nc(N)[nH]c(=O)c21 (stereo not given)
Reply: > 100 µM (inactive)

Ask: Next record, please: O=C1C/C(=C/c2ccc(/C=C3/CC(=O)N(c4cccc(Br)c4)C3=O)cc2)C(=O)N1c1cccc(Br)c1
Reply: > 71 µM (inactive)

Ask: Next record, please: CCOC(=O)CCC(NC(=O)N1CCN(c2c(C)nc(C)nc2O)CC1)C(=O)OCC (stereo not given)
Reply: > 100 µM (inactive)

Ask: Next record, please: CCOc1ccc(NCC2CC/C(=C\c3ccccc3OC)C2=O)cc1 (stereo not given)
Reply: 19.6 µM (inactive)
